# Rate constant of phosphate ester hydrolysis at pH 1.4 per entry
# assay: physchem
# applied.conditions: pH 1.4, 37° C., pseudo-first-order
# Method: All stability experiments were performed in duplicates. The stability of UDP, 11, 12 and 13A in a buffer solution (pH 1.4) was evaluated by ^31P NMR at 37° C. for monitoring possible dephosphorylation products (the signal of the phosphate hydrolysis products is at ˜0 ppm, while that of the borano phosphate analogues is at ˜85 ppm). NMR spectra were recorded on a Bruker DMX-600 spectrometer with a ^31P NMR probe (isotope frequency of 240 MHz) using 85% H3PO4 as an external reference. […]

Before answering, review these 3 worked examples.
molecule | readout.value
BP(=O)(OCC1OC(n2cc(OC)c(=O)[nH]c2=O)C(O)C1O)OP(=O)(O)O (stereo not shown) | 1.31×10^−5 s^−1
[BH3-][P+](O)(OC[C@H]1O[C@@H](n2ccc(=O)[nH]c2=O)[C@H](O)[C@@H]1O)OP(=O)(O)O (stereo partly drawn) [Analogue 11, Uridine-5′-O-(α-boranodiphophate), reference compound] | 1.14×10^−5 s^−1
COc1cn([C@@H]2O[C@H](COP(=O)(O)OP(=O)(O)O)[C@@H](O)[C@H]2O)c(=O)[nH]c1=O [Analogue 12, 5-methoxyuridine diphosphate] | 6.25×10^−7 s^−1

As a next step, examine the molecule that follows.
Prompt: Rate constant of phosphate ester hydrolysis at pH 1.4 for O=c1ccn([C@@H]2O[C@H](COP(=O)(O)OP(=O)(O)O)[C@@H](O)[C@H]2O)c(=O)[nH]1 [UDP, reference compound] ?
Completion: 6.66×10^−7 s^−1
